# target-desc: PfENR (Plasmodium falciparum)
property-name: pKi
// pKi here means minus log10 of the molar concentration (mol/L)

Which pKi value is on record for CC1=C(O)C(=O)C=C2C1=CC=C1[C@@]2(C)CC[C@@]2(C)[C@@H]3C[C@](C)(C(=O)O)CC[C@]3(C)CC[C@]12C [compound 1, celastrol] ?
5.28

----------
# target-desc: PfENR (Plasmodium falciparum, UniProt Q9BJJ9)
# measurement-notes: PfENR continuous inhibition assay
# Format: biochemical
# condition-description: IC50 against PfENR (summary statement)
property-name: IC50

Which IC50 value is on record for CC1=C(O)C(=O)C=C2C1=CC=C1[C@@]2(C)CC[C@@]2(C)[C@@H]3C[C@](C)(C(=O)O)CC[C@]3(C)CC[C@]12C ?
~5 µM
